meta.source: the supplement of paper PMC10567573

Parameter protein stability index: see the listing below.
Assay: protein stability index of a GFP-peptide fusion (GPS, HEK-293T) (PSI 1-6); higher = more stable;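 note: 24-mer peptide tiles fused after GFP, lentivirally expressed, FACS-sorted into six equal bins by GFP/DsRed ratio, decoded by Illumina sequencing, PSI is the read-weighted mean bin number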
Conditions: treatment: DMSO; c terminus: a fixed tail appended
Respond with the number and no other words.

Worked examples follow.
[[record]]
seqstring = "AHTATASAVEGAPPARPRPRSPEC [IRX6]"
reportedproperty = "protein stability index"
reportedresult = 5.37

[[record]]
seqstring = "SLFKLKPLSNKTATDDTGGKDPRN [PLD5]"
reportedproperty = "protein stability index"
reportedresult = 4.44

[[record]]
seqstring = "ELCVKLMFLHPVDYGRKAEELLWR [SMG5]"
reportedproperty = "protein stability index"
reportedresult = 2.41


Request: Tell me measured protein stability index for FVSRYKLMRHMATHSPQKSHQCAH [PLAGL1] please.
Response: 2.7

Request: Tell me measured protein stability index for MVSSVLCRCVASPPPDAAATAASS [SLC25A25] please.
Response: 2.94

Request: Tell me measured protein stability index for LGHREPSAHPVEVFSFDLHEPLSK [TMEM175] please.
Response: 3.92

Request: Tell me measured protein stability index for CRRSVRLALGRERLGEIHTLPLPA [SPSB1] please.
Response: 3

----------
Test: protein stability index of a GFP-peptide fusion (GPS, HEK-293T) (PSI 1-6); higher = more stable
Settings: treatment: DMSO; c terminus: a fixed tail appended
The label depends only on protein stability index: Y if it is at least 3, N if it is smaller.

Recorded results for 8 sequences are shown here.
[[record]]
seqstring = "ANRPDPNTPMEETVRAMTHVINQG [KCNAB2]"
discretelabel = "Y"

[[record]]
seqstring = "SFVYVNPEDGRIFAQRTFDYELLQ [PCDHGC5]"
discretelabel = "N"

[[record]]
seqstring = "GEENFEVVKQFVTGIIDSLTISPK [MATN2]"
discretelabel = "Y"

[[record]]
seqstring = "DIGKGAFSVVRRCVKLCTGHEYAA [CAMK2B]"
discretelabel = "N"

[[record]]
seqstring = "ETNLLLAQKQRLERALDATEVPFS [TEKT4]"
discretelabel = "Y"

[[record]]
seqstring = "FSGQIRLNEDTIQDVVQAADLLLL [GAN]"
discretelabel = "N"

[[record]]
seqstring = "ESDSRKVAEETPDGAPALCPSPEA [PRKX]"
discretelabel = "Y"

[[record]]
seqstring = "RDNDHPDHSSRELSKILAKLERLK [FUT8]"
discretelabel = "N"


Request: Quick check: does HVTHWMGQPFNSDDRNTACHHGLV [DLC1] have protein stability index greater than or equal to 3?
Response: N

Request: Quick check: does HHAQTSKTERINALELLGATFVDK [FEM1C] have protein stability index greater than or equal to 3?
Response: Y

Request: Quick check: does NDLQDLREQILRVKDTDDVPMILV [RAP1B] have protein stability index greater than or equal to 3?
Response: N

Request: Quick check: does LSSTLLSFSTAIGRTCITDLQLTV [MFSD9] have protein stability index greater than or equal to 3?
Response: Y

Request: Quick check: does RKKSGDLKKAKVQVERMREVNSRC [FBXO34] have protein stability index greater than or equal to 3?
Response: Y

----------
Parameter protein stability index: see the listing below.
Experiment: protein stability index of a GFP-peptide fusion (GPS, HEK-293T) (PSI 1-6); higher = more stable
Settings: treatment: DMSO; c terminus: a fixed tail appended
Respond with the number and no other words.

[[record]]
seqstring = "GSLCSPWAAPRVGPLPPAPAMVRI [YPEL3]"
reportedresult = 2.95


Request: Tell me measured protein stability index for EHPGGEEVLREQAGGDATENFEDV [CYB5A] please.
Response: 5.47

Request: Tell me measured protein stability index for HAYFRGHSPSCLARVTGELTMTFP [FCHO1] please.
Response: 2.21

Request: Tell me measured protein stability index for QGENQEHLVIAEMMELGSRSRGAS [FATE1] please.
Response: 4.73

Request: Tell me measured protein stability index for LLAAGANVHATTATGDTALTYACE [ANKRD17] please.
Response: 4.13

Request: Tell me measured protein stability index for GSCEDEPMDSTMDDAVAGDFALIN [ATE1] please.
Response: 5.25

Request: Tell me measured protein stability index for PEGQELQKLGSGAWDNPAYSGPPS [PKD2L1] please.
Response: 4.53

Request: Tell me measured protein stability index for LYIFATCLGLSYDGLLGDNQIMPK [MAGEA3] please.
Response: 2.92

Request: Tell me measured protein stability index for TGKWYELQDLQVTDILPQMITLSE [USP39] please.
Response: 2.51

Request: Tell me measured protein stability index for LLCLLHFSIVSVAAHLALLLLCGT [RTN2] please.
Response: 3.19

Request: Tell me measured protein stability index for IMLKNISQDERLDVLLTLKHTVKE [IQUB] please.
Response: 2.45

Request: Tell me measured protein stability index for YYKPGLLMMCFILPTLVPWYFWGE [SCD] please.
Response: 3.24

Request: Tell me measured protein stability index for FRCSVCSRQLLPGDEFSLREHELL [ISL2] please.
Response: 2.39

Request: Tell me measured protein stability index for EQIKTRTEELIVQTKQVYDAVGML [NLN] please.
Response: 3.68

Request: Tell me measured protein stability index for LVLNSQQSDTLEQREEHELVHVME [RAD54B] please.
Response: 4.59

Request: Tell me measured protein stability index for KEKLQKCLEPLEQKLQEITRCKSS [TRIM39] please.
Response: 4.38

Request: Tell me measured protein stability index for LVQRQMSVIEEDLEEFQLALKHYV [NECAB1] please.
Response: 2.32
